# test_name: Decomposition point by thermal analysis (TG-DTA)
# Format: physicochemical
# experimental_context: 5.0 mg
assay_readout: Decomposition point
Report field: quantity (unit follows the number).

Known results for compounds:
> print(dat)
                                   compound   reading
1  CCCCCCC1(CCCCCC)c2cc(C(=O)c3cccs3)ccc2-c2ccc(C(CC(C)N(OC(C)=O)C(C)=O)=NOC(C)=O)cc21 (racemic)  257.3 °C
2  CCn1c2ccc(C(=O)c3ccccc3C)cc2c2cc(/C(C)=N/OC(C)=O)ccc21 [Compound C-1, reference compound]  216.4 °C

Now examine the next entry.
Form field: reported Decomposition point of `CCCC1(CCC)c2cc(C(=O)c3ccc([N+](=O)[O-])cc3)ccc2-c2ccc(C(C)=NOC(C)=O)cc21`
250.3 °C

Data provenance: patent US9684238B2
